The compounds below have reported log10 of IC50 for NADH-ubiquinone oxidoreductase chain 1 (Bos taurus, UniProt P03887).
Give log10 of IC50, with IC50 taken in nM.

Dear colleague, could you please provide log10 of IC50 for the compounds listed below?
1. CCCCCCCCCCC(O)CN1CCN(CC(O)CCCCCCCCCC)CC1 (centres undefined)
2. c1ccc(CCCCCCCCN2CCN(CCCCCCCCc3ccccc3)CC2)cc1
3. N#[N+]Nc1c(F)c(F)c(COCCCCC[C@@H](O)CN2CCN(C[C@H](O)CCCCCOc3ccc(I)cc3)CC2)c(F)c1F
4. CCCCCCCCCCCCCCCCC(O)CN1CCN(CC(O)CCCC)CC1 (centres undefined)

1. 0.41
2. 0.34
3. 0.00
4. 2.04

Dear colleague, could you please provide log10 of IC50 for the compounds listed below?
1. C[N+]1(C[C@H](O)CCCCCc2ccccc2)CC[N+](C)(C[C@H](O)CCCCCc2ccccc2)CC1 (some centres undefined)
2. O[C@H](CCCCCCCc1ccccc1)CN1CCCN(C[C@H](O)CCCCCCCc2ccccc2)CC1

3.67
0.23

Dear colleague, could you please provide log10 of IC50 for the compounds listed below?
1. O[C@H](CCCCCCCc1ccccc1)CN1CCN(C[C@H](O)CCCCCCCc2ccccc2)CC1
2. O[C@H](CCCCCCCc1ccccc1)CN1C[C@H]2C[C@@H]1CN2C[C@H](O)CCCCCCCc1ccccc1

[0.08, 0.45]

Tell me the measured log10 of IC50 of `C[N+]1(C[C@H](O)CCCCCc2ccccc2)CCN(C[C@H](O)CCCCCc2ccccc2)CC1` , please. 3.04
